# System: Noggin (protein binding on small-molecule microarray)
# run.description: Noggin binders on small-molecule microarray, primary screen, biochemical, 635/667 nm fluorescence (AID 1095);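 further: score merges 667 nm feature fluorescence with signal to noise over triplicate slides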
# study.conditions: 635 nm fluorescence, higher = more signal
# maps each entry to its composite z-score

molecule	composite z-score
C=CC[C@@]12N=C(c3ccc(OCCCO)cc3)O[C@@H]1c1ccccc1N(CCS(=O)(=O)c1ccccc1)C2=O	1.28
CCCc1cccc(=O)o1	0.614
C=C(COC)/C(=C/C[C@@H](OC(=O)c1ccncc1)c1ccc(CO)o1)c1cnc2ccccc2c1	1.88
O=C1NCC(=O)N2[C@@H]1C[C@@H](C(=O)O)[C@H]2c1ccc(O)cc1	1.44
C[C@@H](OCc1ccccc1)C1NC(=O)[C@@]23C(=O)N[C@@H](Cc4ccccc4)C2[C@H](C)[C@@]2(C)O[C@H]2C3/C=C/C/C=C\CNC(=O)CNC1=O (stereo not given in full)	-0.526
COCCOC(=O)N1C(=O)[C@@]2(c3ccccc31)[C@H](C(=O)N1CCN(c3ncccn3)CC1)[C@H]1C(=O)O[C@H](c3ccccc3)[C@H](c3ccccc3)N1[C@@H]2c1ccc(OCCO)cc1	0.57
COCCCNC(=O)[C@]1(Cc2ccccc2CN=[N+]=[N-])N=C(c2ccc(OCCCO)cc2)O[C@@H]1c1ccccc1	0.348
COc1ccccc1CN1C(=O)c2ccccc2[C@](Cc2ccccc2I)(C(=O)NC(C)C)[C@@H]1c1ccc(CO)cc1	1.22
C=C(/C=C/CNS(=O)(=O)c1ccc(C)cc1)[C@H](O)[C@H]1CCCN1S(=O)(=O)c1ccccc1[N+](=O)[O-]	1.3
COCCOC(=O)N1C(=O)[C@@]2(c3cc(C#CC4=CCCCC4)ccc31)[C@H](c1ccccc1OCCO)N1[C@H](c3ccccc3)[C@H](c3ccccc3)OC(=O)[C@H]1[C@@H]2C(=O)N1CCc2cc(OC)c(OC)cc2C1	0.676
CCCCN1CC=CC23O[C@@H]4C=CCOC(=O)[C@@H]4[C@H]2C(=O)N(CCCO)[C@@H]3C1=O (stereo not given in full)	-0.957
C=C(/C(=C/C[C@@H](OC(=O)c1ccncc1)c1ccc(OCCO)cc1)c1cc(C(=O)OC)ccc1OC)C(C)C	0.89
CCOC(=O)[C@@H]1[C@@H]2C(=O)N(CC)C(=O)[C@@H]2C[C@@H]1Sc1ccccc1	-0.132
CC(C)(C)OC(=O)CC[C@]1(C(=O)O)N=C(c2ccc(OCCCO)cc2)O[C@H]1c1ccccc1CN=[N+]=[N-]	-0.465
C=C(C(=O)CC[C@H](OC(=O)c1cccnc1)c1ccc(CO)o1)C(C)C	1.02

---

# system.under.test: Concanavalin-A (Canavalia ensiformis)
# run.description: ConA small-molecule binders, primary screen, artefact control for SMM control protein annotation, biochemical, small-molecule microarray, Alexa647 label, 635 nm (AID 1127);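 further: z combines 667 nm emission intensity with signal-to-noise across three replicate slides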
# study.conditions: ConA-A647 binding fluorescence, higher = more signal

compound	system.under.test	composite z-score
CC(=O)n1cc(C(O)C2C=CC3C(=O)N(Cc4ccccc4)C(=O)C3N2n2cnnc2)c2ccccc21 (stereo not given)	Concanavalin-A (Canavalia ensiformis)	0.458
CC(C)(C)OC(=O)CC[C@]1(C(=O)NCCN2CCOCC2)N=C(c2ccc(OCCCO)cc2)O[C@H]1c1ccccc1N=[N+]=[N-]	Concanavalin-A (Canavalia ensiformis)	0.373
CN(C)C(=O)[C@]1(CCC(=O)OC(C)(C)C)N=C(c2ccc(OCCCO)cc2)O[C@@H]1c1ccccc1	Concanavalin-A (Canavalia ensiformis)	0.34
CC(=O)NCCCC[C@@H]1NC(=O)[C@@H]2C[C@H](C(=O)O)[C@H](c3ccc(O)cc3)N2C1=O	Concanavalin-A (Canavalia ensiformis)	0.092
COc1ccc([Si](C)(C)[C@@H]2[C@@H](CCO)O[C@]3(C(=O)N(Cc4cccc(N5C(=O)c6cccc7cccc5c67)c4)c4ccccc43)[C@H]2C)cc1	Concanavalin-A (Canavalia ensiformis)	0.48
CC(C)N1CC=CC23O[C@@H]4C=CCOC(=O)[C@@H]4[C@H]2C(=O)N(C(C)CO)[C@@H]3C1=O (stereo not given in full)	Concanavalin-A (Canavalia ensiformis)	0.261
COc1c(C)cc(-c2cc3c(c(Cc4ccccc4)n2)[Si](C(C)C)(C(C)C)OC3)cc1C	Concanavalin-A (Canavalia ensiformis)	0.0652
COc1ccc([Si](C)(C)[C@@H]2[C@@H](CCn3cc([C@H](O)c4ccccc4)nn3)O[C@]3(C(=O)N(Cc4ccc(N5CCOC5=O)cc4)c4ccccc43)[C@H]2C)cc1	Concanavalin-A (Canavalia ensiformis)	0.853
COc1ccc([Si](C)(C)[C@H]2[C@H](CCO)O[C@@]3(C(=O)N(Cc4cccc(N5CCCCC5=O)c4)c4ccccc43)[C@@H]2C)cc1	Concanavalin-A (Canavalia ensiformis)	1.1
[N-]=[N+]=NCc1ccccc1C[C@@]1(C(N)=O)N=C(c2ccc(OCCCO)cc2)O[C@@H]1c1ccccc1CN=[N+]=[N-]	Concanavalin-A (Canavalia ensiformis)	0.792
CCOC(=O)[C@@H]1[C@@H]2C(=O)N(CC)C(=O)[C@@H]2C[C@@H]1Sc1ccccc1	Concanavalin-A (Canavalia ensiformis)	0.563
NCCCCCCNC(=O)[C@H]1C[C@H]2C(=O)N[C@@H](Cc3ccccc3)C(=O)N2[C@H]1c1ccc(O)cc1	Concanavalin-A (Canavalia ensiformis)	1.2
COCCOC(=O)N1C(=O)[C@@]2(c3cc(C#CC4(O)CCCCCC4)ccc31)[C@H](C(N)=O)[C@H]1C(=O)O[C@H](c3ccccc3)[C@H](c3ccccc3)N1[C@@H]2c1ccc(O)cc1	Concanavalin-A (Canavalia ensiformis)	0.866
CN1C2C=C(CCCO)C(C3C(=O)N(C(N)=O)C(=O)C32)C1c1cccs1 (stereo not given)	Concanavalin-A (Canavalia ensiformis)	-0.0398
COCC(=C=CC[C@H](O)c1cccc(OCCO)c1)C[C@H](O)c1ccccn1	Concanavalin-A (Canavalia ensiformis)	0.102
